Test system: Influenza A virus
Protocol details: microbe, parasite or virus in culture
Assay type: functional, cell-based
Run parameters: MDCK
pEC50: −log10 of the molar value.
// pEC50 lookup, one value per entry

Which value of pEC50 has been reported for CC(C)c1ccccc1NCCN1CCCCC1 in the records?
< 4.00

---
Which value of pEC50 has been reported for CC(C)c1ccccc1NCCN1CCCCCC1 in the records?
< 4.00
